System: MCF-7 cells
experimental-protocol: MTT-dye reduction cytotoxicity assay, MCF-7
Assay type: cell-based, human
run-parameters: Homo sapiens, MCF7; training set; some activities published before [26-32], the rest measured for this study; read-out: IC50 ± standard deviation, MCF-7
// IC50 lookup, one value per entry
Give the value in µM but do not write µM after it.

Example cases with answers are listed next.
[
  {
    "compound": "O=C(N/N=C/c1cc(Br)ccc1O)c1ccncc1 [Compound 5]",
    "target-or-test-system": "MCF-7 cells",
    "IC50 (µM)": 0.26
  },
  {
    "compound": "COc1ccc(O)c(/C=N/NC(=O)c2ccc(O)cc2)c1 [Compound 10]",
    "target-or-test-system": "MCF-7 cells",
    "IC50 (µM)": 3.54
  },
  {
    "compound": "COc1ccc(O)c(/C=N/NC(=O)c2ccncc2)c1 [Compound 11]",
    "target-or-test-system": "MCF-7 cells",
    "IC50 (µM)": 3
  }
]

Exercise: Look up IC50 for this compound: COc1cccc(/C=N/NC(=O)c2ccncc2)c1O [Compound 3]
Solution: 11.7

Exercise: Look up IC50 for this compound: O=C(N/N=C/c1cc(Br)ccc1O)c1ccc(O)cc1 [Compound 4]
Solution: 8.88

Exercise: Look up IC50 for this compound: O=C(N/N=C/c1cc([N+](=O)[O-])ccc1O)c1ccccc1 [Compound 6]
Solution: 0.25

----------
experimental-protocol: MTT-dye reduction cytotoxicity assay, normal HEK-293
run-parameters: human
experimental-endpoint: IC50 at 72 h (µM)
Give the value in µM but do not write µM after it.

Exercise: Look up IC50 at 72 h for this molecule: N[C@@H](Cc1ccc(N(CCCl)CCCl)cc1)C(=O)O [Melphalan, reference compound]
Solution: 24.8

----------
Test system: SaOS-2 cells
experimental-protocol: MTT-dye reduction cytotoxicity assay, SaOS-2
Format: cell-based, human
run-parameters: Homo sapiens, SAOS-2; 72 h treatment; read-out: IC50 exp, SaOS-2
experimental-endpoint: IC50 (µM)
Give the value in µM but do not write µM after it.

Example cases with answers are listed next.
[
  {
    "compound": "COc1ccc(C=NNC(=O)c2ccccc2)c(O)c1",
    "experimental-endpoint": "IC50",
    "result-number": 1.68
  },
  {
    "compound": "N[C@@H](Cc1ccc(N(CCCl)CCCl)cc1)C(=O)O [Melphalan, reference compound]",
    "experimental-endpoint": "IC50",
    "result-number": 31.4
  }
]

Exercise: Look up IC50 for this compound: COc1ccc(C=NNC(=O)c2ccc(O)cc2)c(O)c1
Solution: 26

Exercise: Look up IC50 for this compound: COc1ccc(C=NNC(=O)c2ccncc2)c(O)c1
Solution: 1.66

----------
Tested on: MDA-MB-231 cells
experimental-protocol: MTT-dye reduction cytotoxicity assay, MDA-MB-231
Type: cell-based, human
run-parameters: Homo sapiens, MDA-MB-231; training set; some activities published before [26-32], the rest measured for this study; read-out: IC50 ± standard deviation, MDA-MB-231
experimental-endpoint: log10 IC50 (log10 of the value in µM)
Answers are given as log10 of IC50 in µM.

Example cases with answers are listed next.
[
  {
    "smiles": "O=C(N/N=C/c1cc(Br)ccc1O)c1ccc(O)cc1",
    "target-or-test-system": "MDA-MB-231 cells",
    "log10 IC50": 1.30
  },
  {
    "smiles": "COc1ccc(O)c(/C=N/NC(=O)c2ccccc2)c1",
    "target-or-test-system": "MDA-MB-231 cells",
    "log10 IC50": 0.65
  }
]

Exercise: Look up log10 IC50 for this compound: O=C(N/N=C/c1cc(Br)ccc1O)c1ccncc1
Solution: 1.58

Exercise: Look up log10 IC50 for this compound: COc1cccc(/C=N/NC(=O)c2ccncc2)c1O
Solution: 1.21

Exercise: Look up log10 IC50 for this compound: O=C(N/N=C/c1cc([N+](=O)[O-])ccc1O)c1ccccc1
Solution: 0.45

Exercise: Look up log10 IC50 for this compound: COc1cccc(/C=N/NC(=O)c2ccc(O)cc2)c1O
Solution: 1.38

Exercise: Look up log10 IC50 for this compound: O=C(N/N=C/c1cc([N+](=O)[O-])ccc1O)c1ccncc1
Solution: 1.86

Exercise: Look up log10 IC50 for this compound: COc1ccc(O)c(/C=N/NC(=O)c2ccncc2)c1
Solution: 0.75

Exercise: Look up log10 IC50 for this compound: COc1cccc(/C=N/NC(=O)c2ccccc2)c1O
Solution: 1.40

Exercise: Look up log10 IC50 for this compound: COc1ccc(O)c(/C=N/NC(=O)c2ccc(O)cc2)c1
Solution: 1.08
